# targetSystem: HIV-1 JR-CSF(Y318A) Env on pseudovirus (HIV-1 isolate JR-CSF) (UniProt P20871)
# assayNotes: cell-based or functional assay
Entries and their measured IC50 (ug/ml), pseudovirus neutralisation, TZM-bl assay follow.

The following binders have reported results that may help.
1. 1469_M23 (PG16) antibody, sister clone of 1443_C16 (antibody, V domains shown) VH: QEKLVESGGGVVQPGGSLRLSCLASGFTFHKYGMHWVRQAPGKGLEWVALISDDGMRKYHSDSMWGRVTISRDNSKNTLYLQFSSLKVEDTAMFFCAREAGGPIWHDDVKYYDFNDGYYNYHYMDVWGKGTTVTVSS VL: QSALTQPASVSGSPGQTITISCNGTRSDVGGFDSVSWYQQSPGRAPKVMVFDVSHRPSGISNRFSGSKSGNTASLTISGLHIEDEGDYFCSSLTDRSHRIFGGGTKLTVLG    > 1 µg/mL
2. 1489_I13 (PG16) antibody, sister clone of 1443_C16 (antibody, V domains shown) VH: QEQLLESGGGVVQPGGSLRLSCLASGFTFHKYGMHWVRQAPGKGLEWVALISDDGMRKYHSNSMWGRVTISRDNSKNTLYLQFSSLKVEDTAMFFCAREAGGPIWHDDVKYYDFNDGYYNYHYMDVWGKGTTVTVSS VL: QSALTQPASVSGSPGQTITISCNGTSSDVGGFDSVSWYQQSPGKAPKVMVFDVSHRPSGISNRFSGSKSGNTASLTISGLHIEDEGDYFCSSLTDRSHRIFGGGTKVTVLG    > 1 µg/mL

Consider now this further binder.
Asked: Identify measured IC50 (ug/ml), pseudovirus neutralisation, TZM-bl assay associated with 1456_A12 (PG16) antibody, sister clone of 1443_C16 (antibody, V domains shown) VH: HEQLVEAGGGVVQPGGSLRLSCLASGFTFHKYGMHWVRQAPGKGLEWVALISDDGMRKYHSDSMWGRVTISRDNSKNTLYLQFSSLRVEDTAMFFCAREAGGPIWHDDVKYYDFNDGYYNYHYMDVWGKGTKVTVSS VL: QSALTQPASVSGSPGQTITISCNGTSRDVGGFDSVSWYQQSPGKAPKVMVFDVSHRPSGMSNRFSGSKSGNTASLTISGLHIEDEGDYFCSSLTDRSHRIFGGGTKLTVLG
Given back: > 1 µg/mL
